Experiment: Metabolic stability in human liver microsomes assessed as compound remaining at 1 uM after 30 mins
Assay type: ADME, Microsome
Conditions: read-out: Stability
quantity name: remaining at 0.5 h, 1 µM (%)
# value in %; strip the unit string

- substance smiles: "CN1Cc2c(ncnc2N2CCC(C)(CNS(N)(=O)=O)CC2)NC1=O"
  quantity name: "remaining at 0.5 h, 1 µM"
  unit text: "%"
  value observed: 85.9

Note: attention shifts to another entry.
Please report the recorded remaining at 0.5 h, 1 µM for CN1Cc2c(-c3ccc(CNS(N)(=O)=O)c(F)c3)ccnc2NC1=O .
86.9

###

Target: UniProt:P08684
Sequence (P08684 whole entry): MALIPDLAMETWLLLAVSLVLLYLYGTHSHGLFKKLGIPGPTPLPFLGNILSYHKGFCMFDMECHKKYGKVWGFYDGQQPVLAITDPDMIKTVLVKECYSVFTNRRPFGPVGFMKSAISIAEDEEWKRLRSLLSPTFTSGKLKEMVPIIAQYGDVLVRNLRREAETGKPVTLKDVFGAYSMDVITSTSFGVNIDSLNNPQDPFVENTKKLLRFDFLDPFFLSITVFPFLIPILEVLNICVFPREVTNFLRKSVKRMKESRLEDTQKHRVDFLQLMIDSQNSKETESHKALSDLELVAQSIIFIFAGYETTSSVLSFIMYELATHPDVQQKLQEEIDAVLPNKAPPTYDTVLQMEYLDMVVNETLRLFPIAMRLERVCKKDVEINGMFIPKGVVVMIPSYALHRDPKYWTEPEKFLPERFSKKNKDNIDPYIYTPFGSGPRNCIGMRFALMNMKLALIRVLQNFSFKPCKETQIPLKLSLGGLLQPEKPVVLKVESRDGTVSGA
Test: Inhibition of CYP3A4 (unknown origin) assessed as remaining activity at 10 uM relative to control
Type: ADME
Conditions: read-out: Activity
quantity name: activity at 10 µM

- substance smiles: "CN1Cc2c(-c3ccc(CNS(N)(=O)=O)c(F)c3)ccnc2NC1=O"
  value observed: "> 100%"

Would you kindly share the measured activity at 10 µM for CN1Cc2c(ncnc2N2CCC(C)(CNS(N)(=O)=O)CC2)NC1=O ?
89.7%

###

Here, each record is paired with measured pIC50 data.
Target: Ectonucleotide pyrophosphatase/phosphodiesterase family member 1 (Homo sapiens)
Sequence (P22413 whole entry): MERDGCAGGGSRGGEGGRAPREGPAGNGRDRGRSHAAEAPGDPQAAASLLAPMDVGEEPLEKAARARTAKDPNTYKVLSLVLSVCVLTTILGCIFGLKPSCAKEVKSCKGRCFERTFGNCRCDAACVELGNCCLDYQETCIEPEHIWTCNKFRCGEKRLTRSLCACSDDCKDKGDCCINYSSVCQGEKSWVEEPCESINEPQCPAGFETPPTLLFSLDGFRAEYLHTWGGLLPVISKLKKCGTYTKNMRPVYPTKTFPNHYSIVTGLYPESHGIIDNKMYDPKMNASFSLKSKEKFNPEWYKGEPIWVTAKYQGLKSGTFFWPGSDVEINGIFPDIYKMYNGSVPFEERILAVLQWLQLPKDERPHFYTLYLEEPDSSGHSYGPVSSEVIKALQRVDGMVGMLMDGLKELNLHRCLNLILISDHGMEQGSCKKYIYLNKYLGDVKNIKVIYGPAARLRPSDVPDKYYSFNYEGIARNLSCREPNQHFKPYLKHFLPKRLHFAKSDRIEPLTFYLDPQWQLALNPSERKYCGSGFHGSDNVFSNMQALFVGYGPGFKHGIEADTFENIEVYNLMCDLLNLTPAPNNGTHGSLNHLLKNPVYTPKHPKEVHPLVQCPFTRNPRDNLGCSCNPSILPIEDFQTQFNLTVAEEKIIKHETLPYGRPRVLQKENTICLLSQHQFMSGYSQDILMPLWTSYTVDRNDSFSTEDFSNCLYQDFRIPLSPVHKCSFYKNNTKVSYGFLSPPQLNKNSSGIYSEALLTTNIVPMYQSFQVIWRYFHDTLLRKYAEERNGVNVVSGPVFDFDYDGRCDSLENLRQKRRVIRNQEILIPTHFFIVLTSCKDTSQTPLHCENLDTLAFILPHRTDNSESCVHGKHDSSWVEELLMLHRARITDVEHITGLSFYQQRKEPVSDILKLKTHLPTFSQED
Formally, pIC50 is defined as -log10 of the concentration c, with c in mol/L.

Consider the reported pIC50 for these compounds:
- substance smiles: "CN1Cc2c(-c3cccc(NS(N)(=O)=O)c3)ccnc2NC1=O"
  pIC50: 6.12
- substance smiles: "CN1Cc2c(-c3cccc(CNS(N)(=O)=O)c3)ccnc2NC1=O"
  pIC50: 6.28
- substance smiles: "CN1Cc2c(ncnc2N2CCC(C)(NS(N)(=O)=O)CC2)NC1=O"
  pIC50: 6.63
- substance smiles: "NS(=O)(=O)Nc1cccc(-c2ccnc3c2CN(C2CC2)C(=O)N3)c1"
  pIC50: 5.13
- substance smiles: "CN1Cc2c(ncnc2-c2cccc(CNS(N)(=O)=O)c2)NC1=O"
  pIC50: 6.77
- substance smiles: "CN1Cc2c(ncnc2N2CCC(C)(CNS(N)(=O)=O)CC2)NC1=O"
  pIC50: 8.43

Fill in the blank: the reported pIC50 of CN1Cc2c(ncnc2N2CCC3(CC2)CCN(S(N)(=O)=O)C3)NC1=O is ____.
6.79

Lookup CN1Cc2c(ncnc2N2CCC(C)(CCNS(N)(=O)=O)CC2)NC1=O
6.17

// next record CN1Cc2c(ncnc2N2CCC(CNS(N)(=O)=O)CC2)NC1=O
7.32

And CN1Cc2c(NCc3ccc(NS(N)(=O)=O)cc3)ncnc2NC1=O ?
7.35

Check CN1Cc2c(ncnc2N2CCC(CCNS(N)(=O)=O)CC2)NC1=O too.
6.11

Same question for CN1Cc2c(-c3ccc(CNS(N)(=O)=O)cc3)ccnc2N(C)C1=O please.
6.49

Then CN1Cc2c(ncnc2-c2cccc(NS(N)(=O)=O)c2)NC1=O ?
6.44

Input CN1Cc2c(ncnc2-c2ccc(CNS(N)(=O)=O)cc2)NC1=O
6.34
